TARGET ENTITY: T1, Ara h 6 (Arachis hypogaea allergen 6) (Arachis hypogaea, UniProt Q647G9 22-145)
T1 construct: Peanut allergen; also called Ara h 6.0101; nAra h 6
T1 sequence: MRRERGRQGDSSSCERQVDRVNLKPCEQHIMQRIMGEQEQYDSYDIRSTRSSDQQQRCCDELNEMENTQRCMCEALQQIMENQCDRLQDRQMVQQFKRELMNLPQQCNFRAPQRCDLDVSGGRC
ASSAY METHOD TEXT: ELISA, Fab titration on coated Ara h 6
ENDPOINT: binding result

1) MY006-15E3 Fab Hf Lf (Fab, V domains shown, Germlined variant, IgG1-Fab format) VH: EVQLVESGGGLVQPGGSLRLSCAASGFKFSTFYMTWVRQAPGKGLEWVANIKQDGSEKDYLDSVRGRFTISRDNAKNSLYLQMNSLRAEDTAVYYCTRNGLQDSYSGDFFDHWGQGTLVTVSS VL: QSVLTQPPSVSAAPGQKVTISCSGTGSNIGHNYVSWYQQLPGTAPKLLIYDNTKRPSGIPDRFSGSKSGTSATLGITGLQTGDEADYYCATWDADLSAVLFGGGTKLTVL :: binds
2) MY006-15E3 Fab Hg (Fab, V domains shown, Germlined variant, IgG1-Fab format; also called 15E3 Hg) VH: EVQLVESGGGLVQPGGSLRLSCAASGFKFSTFYMTWIRQAPGKGLEWVANIKQDGSEKDYLDSVRGRFTISRDNAKSSLYLQMNSLRAEDTAVYYCTRNGLQDSYSGDFFDHWGQGTLVTVSS VL: QSVLTQPPSISAAPGQKVTISCSGTGSNIGHNYVSWYQQLPRTAPRLLIFDNTKRPSGIPDRFSGSKSGSSATLGITGLQTGDEAHYFCATWDADLSAVLFGGGTKLTVL :: binds
3) MY006-7G6 Fab Hf Lf (Fab, V domains shown, Germlined variant, IgG1-Fab format) VH: QVQLVESGGGVVQPGRSLRLSCAASGIAFNDYTMHWVRQAPGKGLEWVAAISYGGTNKYYADSVKGRFTISRDNSKNTLYLQMNSLRAEDTAVYYCARDSGYRSLLHWGQGTLVTVSS VL: DIVMTQSPLSLPVTPGEPASISCRSSQSLVHRNGYNYLDWYLQKPGQSPQLLIYMASKRASGVPDRFSGSGSGTDFTLKISRVEAEDVGVYYCMQALQTWTFGQGTKVEIK :: binds
